molecular target: T1, AAV9 (adeno-associated virus 9, Assembled 60-mer capsid of VP1/VP2/VP3 (nested products of one cap gene), amine-coupled to a CM5 chip; the letters give one VP1 subunit only.); experiment: SPR, AAV amine-coupled to CM5 chip
T1 construct: also called adeno-associated virus serotype 9
RECORDED_METRIC: kon (M⁻¹ s⁻¹)

- BINDER: "A4-B2 (bispecific antibody) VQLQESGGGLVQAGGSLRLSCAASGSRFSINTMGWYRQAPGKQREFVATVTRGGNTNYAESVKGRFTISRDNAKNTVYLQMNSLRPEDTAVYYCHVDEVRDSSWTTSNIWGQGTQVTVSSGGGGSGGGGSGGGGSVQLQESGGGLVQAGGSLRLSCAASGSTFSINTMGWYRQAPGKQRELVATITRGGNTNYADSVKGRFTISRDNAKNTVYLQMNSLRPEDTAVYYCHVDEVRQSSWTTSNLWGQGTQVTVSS"
  RESULT: 95800
- BINDER: "A4-C2 (VHH) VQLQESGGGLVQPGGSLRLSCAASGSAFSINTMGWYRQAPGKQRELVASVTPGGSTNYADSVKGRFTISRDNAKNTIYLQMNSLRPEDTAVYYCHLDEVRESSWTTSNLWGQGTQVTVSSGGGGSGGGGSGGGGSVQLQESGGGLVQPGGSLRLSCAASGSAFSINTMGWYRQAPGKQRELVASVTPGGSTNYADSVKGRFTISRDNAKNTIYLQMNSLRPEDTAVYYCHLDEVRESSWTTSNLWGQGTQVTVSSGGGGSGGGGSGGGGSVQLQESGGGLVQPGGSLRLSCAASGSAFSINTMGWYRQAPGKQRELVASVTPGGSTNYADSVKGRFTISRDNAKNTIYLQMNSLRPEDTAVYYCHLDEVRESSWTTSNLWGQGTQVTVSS"
  RESULT: 257000
